Test system: CCRIS mutagenicity, Ames/micronucleus/aberration tests
Assay: CCRIS mutagenicity studies
Conditions: Test System: AMES SALMONELLA TYPHIMURIUM; Strain/Indicator: TA97; Metabolic Activation: HAMSTER, LIVER, S-9, AROCLOR 1254 (10%); Method: PREINCUBATION
Active and inactive are the calls of the source. No rule for the calls is given here.
Tick one outcome: active, inactive

Check out these entries, answers already filled in.
{"columns": ["molecule", "assignedCategory"],
 "data": [
  ["Oc1c(Cl)ccc(Cl)c1Cl", "inactive"],
  ["C=C(Cl)CCl", "active"],
  ["O=C(O)c1ccccc1[N+](=O)[O-]", "inactive"]
]}

Query: // param item: O=C1Nc2ccc(Cl)cc2C(c2ccccc2)=NC1O (configuration not stated) ; yields the recorded call
Result: inactive

Query: // param item: CC(=O)Oc1ccccc1C(=O)O ; yields the recorded call
Result: inactive

Query: // param item: O=[N+]([O-])c1ccc(Nc2ccccc2O)c([N+](=O)[O-])c1 ; yields the recorded call
Result: active

Query: // param item: CC(=O)O ; yields the recorded call
Result: inactive

Query: // param item: O=CC(Cl)(Cl)Cl ; yields the recorded call
Result: inactive

Query: // param item: CCN(CC)c1ccc(N)cc1 ; yields the recorded call
Result: active

====

Test system: CCRIS mutagenicity, Ames/micronucleus/aberration tests
Assay: CCRIS mutagenicity studies
Details: Test System: AMES SALMONELLA TYPHIMURIUM; Strain/Indicator: TA100; Metabolic Activation: RAT, LIVER, S-9, AROCLOR 1254; Method: STANDARD PLATE
Active and inactive are the calls of the source. No rule for the calls is given here.
measure: mutagenic call

{"columns": ["compound", "measure", "observedMeasurement"],
 "data": [
  ["CC(C)N(C(=O)SCC(Cl)=C(Cl)Cl)C(C)C", "mutagenic call", "active; positive"],
  ["O=C1C(=O)c2c(ccc3ccccc23)-c2ccccc21", "mutagenic call", "inactive; negative"],
  ["ClC1=C(Cl)[C@]2(Cl)[C@@H]3[C@H]4C[C@H]([C@@H]5O[C@H]45)[C@@H]3[C@@]1(Cl)C2(Cl)Cl", "mutagenic call", "inactive; negative"],
  ["C=CCC1=C(C)C(OC(=O)[C@@H]2[C@@H](C=C(C)C)C2(C)C)CC1=O (stereo not given in full)", "mutagenic call", "active; positive"],
  ["COc1cc(O)c2c(=O)oc3cc(O)cc(C)c3c2c1", "mutagenic call", "inactive; negative"]
]}

Look at each compound and report its mutagenic call.
1. CSCC[C@H](NC(=O)[C@@H](N)Cc1c[nH]c2ccccc12)C(=O)N[C@@H](CC(=O)O)C(=O)N[C@@H](Cc1ccccc1)C(N)=O
2. C=CC(=O)OCC
3. CCC(CCC(C)O)COC(=O)c1ccccc1C(=O)O (stereo not given)
4. COC[C@@H]1C=C2c3cccc4c3c(cn4C)C[C@H]2N(C)C1
5. COc1ccc2nc(N)sc2c1

Result:
["inactive; negative", "inactive; negative", "inactive; negative", "active; positive", "active; positive"]

Look at each compound and report its mutagenic call.
1. COP(=O)(OC)SC
2. Cc1nc2ccccc2s1
3. CCN(CC)C(=S)S[C@@H]1O[C@H](CO)[C@@H](O)[C@H](O)[C@H]1O
4. O[C@H]1C=Cc2c(ccc3cccnc23)[C@@H]1O
5. C=C(C)C1CCC2(C)OC2C1 (stereo not given)
6. CC(=O)n1ccnc1

Result:
1: inactive; negative; 2: inactive; negative; 3: inactive; negative; 4: active; positive; 5: inactive; negative; 6: inactive; negative

Look at each compound and report its mutagenic call.
1. CC(C)n1c(/C=C/[C@H](O)C[C@H](O)CC(=O)O)c(-c2ccc(F)cc2)c2ccccc21
2. O=C(CCl)NCO
3. Cc1cc2c(cc1C)-c1ccccc1C2
4. O=C1Nc2ccc(Cl)cc2C(c2ccccc2)=NC1O (stereo not given)

Result:
inactive; negative
inactive; negative
inactive; negative
inactive; negative
